biological target: human 5-HT3 serotonin receptors (Homo sapiens (Human)); test: [3H]BRL 43694 competition binding; conditions: CHO cell membranes, [3H]BRL 43694, Cheng Prusoff; read-out: h-5HT3 Ki
Sequence (P46098 24-478): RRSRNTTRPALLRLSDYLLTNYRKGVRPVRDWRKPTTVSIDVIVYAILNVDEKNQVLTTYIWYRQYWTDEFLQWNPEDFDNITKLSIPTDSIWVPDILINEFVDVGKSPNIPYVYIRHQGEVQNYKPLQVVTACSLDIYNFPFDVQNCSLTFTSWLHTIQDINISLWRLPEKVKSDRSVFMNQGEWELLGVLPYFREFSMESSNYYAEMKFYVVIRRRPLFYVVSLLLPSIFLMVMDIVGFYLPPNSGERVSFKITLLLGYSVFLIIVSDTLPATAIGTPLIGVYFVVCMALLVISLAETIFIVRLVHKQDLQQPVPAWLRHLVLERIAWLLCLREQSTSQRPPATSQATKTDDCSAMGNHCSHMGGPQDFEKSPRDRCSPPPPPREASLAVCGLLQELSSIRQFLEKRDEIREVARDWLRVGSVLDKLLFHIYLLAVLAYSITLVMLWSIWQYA
pKi: −log10 of the molar value. Counter-ions that a name gives are not always drawn.
Assign class by pKi: not lower than 6 means yes (1); lower than 6 means no (0).

In [3]: df
Out[3]:
                                    compound  category_label
 0  CC1(C)[C@H](NC(=O)c2cc3cc(Cl)ccc3s2)C2CCN1CC2 [(R)-13, hydrochloride]          no (0)
 1  CC1(c2cccc3cc(C(=O)N[C@@H]4C5CCN(CC5)C45CC5)sc23)CC1 [(R)-188]         yes (1)
 2  CC1(C)[C@H](NC(=O)c2cc3cccnc3s2)C2CCN1CC2 [(R)-28, hydrochloride]          no (0)
 3  O=C(N[C@@H]1C2CCN(CC2)C12CC2)c1ccc2cc(Cl)sc2c1 [(R)-203, hydrochloride]          no (0)
 4  CC1(C)[C@H](NC(=O)c2cc3ccc(Cl)cc3s2)C2CCN1CC2 [(R)-12, hydrochloride]          no (0)
 5  N#Cc1cccc2cc(C(=O)N[C@@H]3C4CCN(CC4)C34CC4)sc12 [(R)-160, hydrochloride]         yes (1)
 6  O=C(N[C@@H]1C2CCN(CC2)C12CC2)c1cc2cccc(C3CC3)c2s1 [(R)-165, hydrochloride]         yes (1)
 7  O=C(N[C@@H]1C2CCN(CC2)C12CC2)c1cc2ccc(F)c(Cl)c2s1 [(R)-158, hydrochloride]         yes (1)
 8  COc1ccc2cc(C(=O)N[C@@H]3C4CCN(CC4)C34CC4)sc2c1F [(R)-155, hydrochloride]          no (0)
 9  Cc1c(Cl)ccc2cc(C(=O)N[C@@H]3C4CCN(CC4)C34CC4)sc12 [(R)-205, hydrochloride]          no (0)
10  Cc1ccc2cc(C(=O)N[C@@H]3C4CCN(CC4)C3(C)C)sc2c1C1CC1 [(R)-140, hydrochloride]          no (0)
11  COc1c(C2CC2)ccc2cc(C(=O)N[C@@H]3C4CCN(CC4)C34CC4)sc12 [(R)-262, hydrochloride]          no (0)
12  CCOc1ccc2cc(C(=O)N[C@@H]3C4CCN(CC4)C34CC4)sc2c1 [(R)-189, hydrochloride]          no (0)

---

In this section we review reported % ACh @ 10 μM Oocyte values for a set of compounds.
molecular target: human α7 nAChRs transiently expressed in Xenopus laevis oocytes (Homo sapiens (Human)); experiment: Oocyte electrophysiology screen (TEVC); assay type: cell-based; settings: 0.01 mM test compound, peak current relative to 0.2 mM ACh
Where a name gives a salt, the structure may show the parent alone.
Experimental readout: % ACh @ 10 μM Oocyte (% ACh)

>>> df
                                   compound  val
0  O=C(N[C@@H]1C2CCN(CC2)C12CC2)c1ccc2sccc2c1 [(R)-83, hydrochloride]  558
1  Cc1nc2ccc(C(=O)N[C@@H]3C4CCN(CC4)C34CC4)cc2s1 [(R)-88, hydrochloride]  133
2  CC1(C)[C@H](NC(=O)c2cc3ccc(N4CCC(F)(F)CC4)cc3s2)C2CCN1CC2 [(R)-45, hydrochloride]    1
3  Cc1ccc2cc(C(=O)N[C@@H]3C4CCN(CC4)C34CC4)sc2c1F [(R)-106, hydrochloride]  572

---

molecular target: human α7 nAChRs transiently expressed in Xenopus laevis oocytes (Homo sapiens (Human), UniProt P36544); test: Oocyte electrophysiology screen (TEVC); type: cell-based; settings: 0.01 mM test compound, peak current relative to 0.2 mM ACh
Sequence (P36544 23-502 limits assumed): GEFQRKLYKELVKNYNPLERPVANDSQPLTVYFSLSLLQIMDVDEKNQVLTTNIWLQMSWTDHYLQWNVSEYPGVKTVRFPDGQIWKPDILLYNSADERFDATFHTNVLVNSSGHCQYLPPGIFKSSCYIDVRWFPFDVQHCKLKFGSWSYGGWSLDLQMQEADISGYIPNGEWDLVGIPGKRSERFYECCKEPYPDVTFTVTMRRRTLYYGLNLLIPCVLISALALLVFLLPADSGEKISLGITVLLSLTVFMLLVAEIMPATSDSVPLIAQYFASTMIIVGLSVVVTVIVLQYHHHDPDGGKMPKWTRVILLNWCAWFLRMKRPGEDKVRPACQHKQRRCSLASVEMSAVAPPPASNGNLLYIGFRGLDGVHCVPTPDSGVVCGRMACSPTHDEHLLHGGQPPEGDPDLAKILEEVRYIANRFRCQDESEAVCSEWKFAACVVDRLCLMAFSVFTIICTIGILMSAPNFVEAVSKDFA
Where a name gives a salt, the structure may show the parent alone.
Experimental readout: % ACh @ 10 μM Oocyte

In [3]: df
Out[3]:
                                   molecule  experimental_readout      val
0  O=C(N[C@@H]1C2CCN(CC2)C12CC2)c1cc2ccc(-n3ccnn3)cc2s1 [(R)-98, hydrochloride]  % ACh @ 10 μM Oocyte  3 % ACh
1  Cl.Cn1cnc2ccc(C(=O)N[C@@H]3C4CCN(CC4)C3(C)C)cc21 [(R)-206]  % ACh @ 10 μM Oocyte  0 % ACh
2  O=C(N[C@@H]1C2CCN(CC2)C12CC2)c1cc2ccc(N3CCC(F)(F)CC3)cc2s1 [(R)-100, hydrochloride]  % ACh @ 10 μM Oocyte  1 % ACh

---

Biological target: human α7 nAChRs transiently expressed in Xenopus laevis oocytes (Homo sapiens (Human))
Experiment: Oocyte electrophysiology screen (TEVC)
Assay type: cell-based
Conditions: 0.01 mM test compound, peak current relative to 0.2 mM ACh
Description: Oocyte Electrophysiology Screen (% ACh @ 10 μM Oocyte) The Oocyte Electrophysiology Screen studies were performed under contract by HiQScreen Geneva, Switzerland. […] Currents evoked by acetylcholine or other agonist ligands were recorded using the standard two-electrode voltage-clamp configuration (TEVC). […] Data were filtered at 10 Hz, captured at 100 Hz and analyzed using proprietary data acquisition and analysis software running under Matlab (Mathworks Inc.). […]
Structures can show the parent of a compound that is named as a salt.
Experimental readout: % ACh @ 10 μM Oocyte (% ACh)

>>> df
                                   compound  experimental_readout  unit_spec   val
0  O=C(N[C@@H]1C2CCN(CC2)C12CC2)c1cc2ccc(F)c(C(F)(F)F)c2s1 [(R)-153, hydrochloride]  % ACh @ 10 μM Oocyte      % ACh   114
1  CC1(C)[C@H](NC(=O)c2nc3ccccc3s2)C2CCN1CC2 [(R)-29, hydrochloride]  % ACh @ 10 μM Oocyte      % ACh   448
2  O=C(N[C@H]1C2CCN(CC2)C12CC2)c1cc2c(cn1)OCCO2 [(S)-76, hydrochloride]  % ACh @ 10 μM Oocyte      % ACh     1
3  CC1(C)[C@H](NC(=O)c2cc3cc(C(F)(F)F)ccc3s2)C2CCN1CC2 [(R)-17, hydrochloride]  % ACh @ 10 μM Oocyte      % ACh     0
4  O=C(NC1C2CCN(CC2)C12CC2)c1cc2cccc(Cl)c2s1 (single isomer, unassigned; enantiomer1) [56a]  % ACh @ 10 μM Oocyte      % ACh  1231
5  CC1(C)[C@H](NC(=O)c2ccc3c(c2)OCCO3)C2CCN1CC2.Cl [(R)-215]  % ACh @ 10 μM Oocyte      % ACh    86
6  O=C(NC1C2CCN(CC2)C12CC2)c1ccc2ccsc2c1 (single isomer, unassigned; enantiomer1) [58a]  % ACh @ 10 μM Oocyte      % ACh   235
7  Cl.O=C(N[C@@H]1C2CCN(CC2)C12CC2)c1cc2ccc(OC(F)(F)F)cc2s1 [(R)-248]  % ACh @ 10 μM Oocyte      % ACh     1

---

target: UniProt:P46098; experiment: [3H]BRL 43694 competition binding; settings: CHO cell membranes, [3H]BRL 43694, Cheng Prusoff; read-out: h-5HT3 Ki
pKi: −log10 of the molar value. Where a name gives a salt, the structure may show the parent alone.
Assign class by pKi: not lower than 6 means label 1; lower than 6 means label 0.

>>> df
                                    molecule          system  category_label
 0  CC1(C)[C@H](NC(=O)c2cc3ccc(Cl)c(Cl)c3s2)C2CCN1CC2 [(R)-109, hydrochloride]  UniProt:P46098         label 0
 1  Cc1ccc2cc(C(=O)N[C@@H]3C4CCN(CC4)C3(C)C)sc2c1Cl [(R)-52, hydrochloride]  UniProt:P46098         label 1
 2  COc1c(Cl)ccc2cc(C(=O)N[C@@H]3C4CCN(CC4)C34CC4)sc12 [(R)-192, hydrochloride]  UniProt:P46098         label 0
 3  CC1(C)[C@H](NC(=O)c2cc3cccc(Cl)c3s2)C2CCN1CC2 [(R)-3, hydrochloride]  UniProt:P46098         label 1
 4  CC1(C)[C@H](NC(=O)c2ccc3sccc3c2)C2CCN1CC2 [(R)-30, hydrochloride]  UniProt:P46098         label 0
 5  O=C(N[C@@H]1C2CCN(CC2)C12CC2)c1ccc2ccoc2c1 [(R)-84, hydrochloride]  UniProt:P46098         label 0
 6  COc1ccc2cc(C(=O)N[C@@H]3C4CCN(CC4)C34CC4)sc2c1Cl [(R)-154, hydrochloride]  UniProt:P46098         label 0
 7  CC1(C)[C@H](NC(=O)c2cc3cc(C(F)(F)F)ccc3s2)C2CCN1CC2 [(R)-17, hydrochloride]  UniProt:P46098         label 0
 8  COc1ccc2cc(C(=O)N[C@@H]3C4CCN(CC4)C3(C)C)sc2c1F [(R)-51, hydrochloride]  UniProt:P46098         label 0
 9  CC1(C)[C@H](NC(=O)c2cc3cccc(C4CC4)c3s2)C2CCN1CC2 [(R)-118, hydrochloride]  UniProt:P46098         label 1
10  O=C(N[C@@H]1C2CCN(CC2)C12CC2)c1cc2ccc3c(c2s1)OCCC3 [(R)-201, hydrochloride]  UniProt:P46098         label 0
11  Cc1cc2cc(C(=O)N[C@@H]3C4CCN(CC4)C34CC4)ccc2o1 [(R)-91, hydrochloride]  UniProt:P46098         label 0
12  Cc1ccc2cc(C(=O)N[C@@H]3C4CCN(CC4)C34CC4)sc2c1C1CC1 [(R)-196, hydrochloride]  UniProt:P46098         label 1
13  O=C(N[C@@H]1C2CCN(CC2)C12CC2)c1n[nH]c2ccccc12 [(R)-194, hydrochloride]  UniProt:P46098         label 1
14  O=C(N[C@@H]1C2CCN(CC2)C12CC2)c1cc2cc(F)c(Cl)c(F)c2s1 [(R)-175, hydrochloride]  UniProt:P46098         label 0
